- TARGET_ENTITY: Kdr (Homo sapiens, UniProt P35968)
- Construct: Kinases are expressed as either kinase domains or full length constructs; made in house
- Sequence (P35968 20-1356, species assumed): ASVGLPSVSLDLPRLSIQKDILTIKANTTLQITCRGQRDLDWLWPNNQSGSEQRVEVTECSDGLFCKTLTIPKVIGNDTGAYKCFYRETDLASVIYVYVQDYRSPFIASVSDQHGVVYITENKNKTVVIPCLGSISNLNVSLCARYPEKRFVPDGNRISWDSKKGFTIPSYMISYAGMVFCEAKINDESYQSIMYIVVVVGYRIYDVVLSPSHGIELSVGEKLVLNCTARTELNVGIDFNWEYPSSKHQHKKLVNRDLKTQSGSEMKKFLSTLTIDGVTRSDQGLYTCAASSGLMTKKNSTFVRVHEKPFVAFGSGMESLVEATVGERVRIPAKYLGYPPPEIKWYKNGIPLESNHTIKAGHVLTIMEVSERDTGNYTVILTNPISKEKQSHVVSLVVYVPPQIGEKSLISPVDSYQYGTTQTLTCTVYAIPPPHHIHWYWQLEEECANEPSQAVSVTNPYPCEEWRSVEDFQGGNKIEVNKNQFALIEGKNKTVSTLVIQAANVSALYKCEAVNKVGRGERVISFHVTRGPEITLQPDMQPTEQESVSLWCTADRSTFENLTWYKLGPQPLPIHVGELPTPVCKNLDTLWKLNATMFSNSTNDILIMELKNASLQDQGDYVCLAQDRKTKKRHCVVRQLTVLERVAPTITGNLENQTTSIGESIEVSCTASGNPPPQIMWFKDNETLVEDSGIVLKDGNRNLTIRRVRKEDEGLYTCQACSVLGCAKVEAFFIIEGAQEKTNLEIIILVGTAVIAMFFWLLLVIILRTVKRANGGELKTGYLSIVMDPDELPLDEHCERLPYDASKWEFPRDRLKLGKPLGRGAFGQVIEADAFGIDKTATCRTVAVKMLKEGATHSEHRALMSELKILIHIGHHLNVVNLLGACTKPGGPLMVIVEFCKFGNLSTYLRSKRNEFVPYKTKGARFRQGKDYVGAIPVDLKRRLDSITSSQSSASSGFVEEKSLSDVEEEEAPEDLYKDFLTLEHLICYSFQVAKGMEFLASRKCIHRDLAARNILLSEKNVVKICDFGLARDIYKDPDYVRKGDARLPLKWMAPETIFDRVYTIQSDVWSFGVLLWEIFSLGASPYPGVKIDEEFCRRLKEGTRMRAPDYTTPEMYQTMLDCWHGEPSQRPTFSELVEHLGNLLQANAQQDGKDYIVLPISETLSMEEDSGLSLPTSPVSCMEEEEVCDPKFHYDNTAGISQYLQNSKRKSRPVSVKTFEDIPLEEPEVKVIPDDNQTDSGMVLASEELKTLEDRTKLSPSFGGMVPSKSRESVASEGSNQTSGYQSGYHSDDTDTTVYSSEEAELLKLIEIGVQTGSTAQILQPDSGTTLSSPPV
- ASSAY_INFO: Kinase inhibition assay (33P transfer), Kdr
- Type: biochemical
- CONDITION: read-out: KDR-1
IC50 overview

COc1cc(Nc2ncnc(-n3c(NCc4ccccn4)nc4ccccc43)n2)cc(OCCN2CCOCC2)c1OC [Compound 507] = < 685 nM
Nc1nc2ccccc2n1-c1ncnc(Nc2ccccc2)n1 [Compound 651] = < 1320 nM

# IC50 (molecule: CN(c1cccc(Cl)c1)c1ncnc(Nc2ccncc2)n1 [Compound 756] ) is > 14400 nM

# IC50 (molecule: COc1cc(Nc2ncnc(NC(=O)NCCc3ccccc3)n2)cc(OC)c1OC [Compound 661] ) is 942 to 5650 nM

# IC50 (molecule: Nc1nc2ccccc2n1-c1ncnc(Nc2ccc(S(N)(=O)=O)cc2)n1 [Compound 923] ) is < 1050 nM

---

IC50 overview
- TARGET_ENTITY: Lck (Homo sapiens, UniProt P06239)
- Construct: Kinases are expressed as either kinase domains or full length constructs; made in house
- Sequence (P06239 whole entry, species assumed, the tested form may be a part): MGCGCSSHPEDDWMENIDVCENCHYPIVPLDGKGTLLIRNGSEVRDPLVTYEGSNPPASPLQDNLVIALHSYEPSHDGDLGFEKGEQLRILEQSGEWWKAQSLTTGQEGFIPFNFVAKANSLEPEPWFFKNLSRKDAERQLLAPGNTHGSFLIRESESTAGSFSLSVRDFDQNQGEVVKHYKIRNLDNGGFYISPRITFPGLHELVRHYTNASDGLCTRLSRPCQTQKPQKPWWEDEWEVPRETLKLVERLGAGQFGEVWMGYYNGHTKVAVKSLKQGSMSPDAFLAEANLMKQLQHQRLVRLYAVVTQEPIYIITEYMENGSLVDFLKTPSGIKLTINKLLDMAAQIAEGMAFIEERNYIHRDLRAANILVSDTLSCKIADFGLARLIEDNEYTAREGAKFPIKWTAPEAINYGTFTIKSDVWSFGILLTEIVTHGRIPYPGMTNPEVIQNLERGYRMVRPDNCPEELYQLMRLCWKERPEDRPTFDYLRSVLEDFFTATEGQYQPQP
- ASSAY_INFO: Kinase inhibition assay (33P transfer), Lck
- Assay type: biochemical
- CONDITION: read-out: Lck-1

# count of solved cases: 4
O=c1[nH]c2ccccc2n1-c1ncnc(Nc2ccccc2Cl)n1 [Compound 484] = > 13.3 µM
O=c1[nH]c2ccccc2n1-c1ncnc(Nc2ccc(Br)c(Cl)c2)n1 [Compound 483] = 5.75 to 8.38 µM
COc1ccc(CNc2ncccc2-c2ncnc(Nc3cc(OC)c(OC)c(OC)c3)n2)nc1 [Compound 1085] = 0.841 to 5.05 µM
COc1cc(Nc2ncnc(-c3cccnc3NCCN3CCCCC3)n2)cc(OC)c1OC [Compound 1079] = > 9.67 µM

Please look at the following compound next.
# IC50 (compound: CC(C)(C)c1cc(Nc2ncnc(Nc3ccc(CC(=O)O)cc3)n2)[nH]n1 [Compound 980] ) is > 12.2 µM

---

- TARGET_ENTITY: PDGFRB (Homo sapiens)
- Construct: Kinases are expressed as either kinase domains or full length constructs; made in house
- Sequence (P09619 33-1106, species assumed): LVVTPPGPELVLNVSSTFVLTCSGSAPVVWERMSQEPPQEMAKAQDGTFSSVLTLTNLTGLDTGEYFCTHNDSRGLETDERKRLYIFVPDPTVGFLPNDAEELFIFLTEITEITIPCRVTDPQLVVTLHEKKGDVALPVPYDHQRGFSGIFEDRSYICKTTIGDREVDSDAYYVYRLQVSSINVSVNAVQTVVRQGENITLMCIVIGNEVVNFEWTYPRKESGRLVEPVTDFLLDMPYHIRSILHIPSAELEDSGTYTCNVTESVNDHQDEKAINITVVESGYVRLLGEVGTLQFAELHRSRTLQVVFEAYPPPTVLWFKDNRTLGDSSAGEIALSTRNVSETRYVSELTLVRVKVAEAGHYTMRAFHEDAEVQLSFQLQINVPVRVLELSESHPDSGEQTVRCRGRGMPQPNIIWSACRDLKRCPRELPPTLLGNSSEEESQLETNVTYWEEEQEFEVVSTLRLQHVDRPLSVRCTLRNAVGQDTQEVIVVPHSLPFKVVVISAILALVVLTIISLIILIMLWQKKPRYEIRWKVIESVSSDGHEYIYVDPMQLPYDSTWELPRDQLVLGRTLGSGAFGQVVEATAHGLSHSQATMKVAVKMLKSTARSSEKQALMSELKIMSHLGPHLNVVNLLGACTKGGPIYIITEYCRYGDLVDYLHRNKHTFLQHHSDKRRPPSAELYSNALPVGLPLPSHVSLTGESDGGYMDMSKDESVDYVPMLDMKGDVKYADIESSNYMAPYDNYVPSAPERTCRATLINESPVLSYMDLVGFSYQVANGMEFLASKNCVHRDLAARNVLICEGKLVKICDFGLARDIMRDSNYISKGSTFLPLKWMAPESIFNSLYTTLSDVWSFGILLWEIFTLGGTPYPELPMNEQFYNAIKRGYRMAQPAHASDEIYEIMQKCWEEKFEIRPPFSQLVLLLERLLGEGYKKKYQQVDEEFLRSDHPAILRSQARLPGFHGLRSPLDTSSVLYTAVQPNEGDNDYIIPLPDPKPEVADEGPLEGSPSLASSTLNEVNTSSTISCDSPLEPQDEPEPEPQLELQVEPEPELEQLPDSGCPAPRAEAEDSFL
- ASSAY_INFO: Kinase inhibition assay (33P transfer), PDGFRB
- Format: biochemical
- CONDITION: read-out: PDGFRB-1
IC50 overview

# count of solved cases: 3
COc1cc(Nc2ncnc(Nc3cc(-c4ccccc4)nn3C)n2)cc(OC)c1OC [Compound 394] = 923 to 5540 nM
CCc1ccc(Nc2ncnc(-n3c(N)nc4ccccc43)n2)cc1 [Compound 657] = 7240 to 10600 nM
COc1cc(Nc2ncnc(-n3c(NCc4ccc([N+](=O)[O-])cc4)nc4ccccc43)n2)cc(OC)c1OC [Compound 952] = 757 to 4540 nM

# IC50 (molecule: COc1cc(Nc2ncnc(-n3c(NCc4cccnc4)nc4ccccc43)n2)cc(OC)c1OC [Compound 416] ) is < 826 nM

# IC50 (molecule: COc1cccc(Nc2nc3ccccc3n2-c2ncnc(Nc3cc(OC)c(OC)c(OC)c3)n2)c1 [Compound 415] ) is < 801 nM

# IC50 (molecule: COc1cc(Nc2ncnc(-n3c(=O)[nH]c4ccccc43)n2)cc(OC)c1OCCN1CCOCC1 [Compound 1040] ) is < 810 nM

# IC50 (molecule: COc1cc(Nc2ncnc(Nc3cccc(O)c3)n2)cc(OC)c1OC [Compound 78] ) is < 1080 nM

# IC50 (molecule: C=CCNc1ncccc1-c1ncnc(Nc2cc(OC)c(OC)c(OC)c2)n1 [Compound 1076] ) is < 1010 nM

# IC50 (molecule: CC(=O)NS(=O)(=O)c1ccc(Nc2ncnc(-n3c(N)nc4ccccc43)n2)cc1 [Compound 440] ) is 942 to 5650 nM

# IC50 (molecule: COc1cc(Nc2ncnc(N(c3ccccc3)c3nc4ccccc4[nH]3)n2)cc(OC)c1OC [Compound 335] ) is 7450 to 9580 nM

# IC50 (molecule: COc1ccc(Nc2ncnc(Nc3cccc(C)c3)n2)cc1OC [Compound 108] ) is 1190 to 7110 nM

# IC50 (molecule: COc1ccc(CNc2ncccc2-c2ncnc(Nc3cc(OC)c(OC)c(OC)c3)n2)nc1 [Compound 1085] ) is 841 to 5050 nM

# IC50 (molecule: NC(=O)c1cccc(Nc2ncnc(Nc3cc(-c4ccco4)n[nH]3)n2)c1 [Compound 342] ) is 1100 to 6620 nM

# IC50 (molecule: COc1cc(Nc2ncnc(Nc3ccccc3F)n2)cc(OC)c1OC [Compound 65] ) is < 1080 nM

# IC50 (molecule: COc1cc(Nc2ncnc(-n3c(NCc4ccccc4F)nc4ccccc43)n2)cc(OC)c1OC [Compound 512] ) is < 798 nM

# IC50 (molecule: COc1cc(Nc2ncnc(-n3c(NCc4cccc(Cl)c4)nc4ccccc43)n2)cc(OC)c1OC [Compound 949] ) is < 772 nM

# IC50 (molecule: COc1cc(Nc2ncnc(-n3c(NC(C)c4ccc(F)cc4)nc4ccccc43)n2)cc(OC)c1OC (stereo not shown) [Compound 605] ) is < 776 nM

# IC50 (molecule: OCc1cccc(Nc2ncnc(Nc3cc(-c4ccco4)n[nH]3)n2)c1 [Compound 429] ) is < 1140 nM

# IC50 (molecule: CCc1cccc(Nc2ncnc(-n3c(N)nc4ccccc43)n2)c1 [Compound 655] ) is 1210 to 7240 nM

# IC50 (molecule: COc1cc(Nc2ncnc(Nc3cccc(F)c3)n2)cc(OC)c1OC [Compound 304] ) is < 1080 nM

# IC50 (molecule: COc1cc(Nc2ncnc(Nc3cc(-c4ccc(C(=O)O)cc4)n[nH]3)n2)cc(OC)c1OC [Compound 1004] ) is 863 to 5180 nM

# IC50 (molecule: Nc1nc2ccccc2n1-c1ncnc(Nc2ccccc2)n1 [Compound 651] ) is 1320 to 7910 nM

# IC50 (molecule: COc1ccc(Nc2ncnc(Nc3ccc(OC)c(OC)c3)n2)cc1OC [Compound 63] ) is 1040 to 6260 nM

# IC50 (molecule: COc1cc(Nc2ncnc(Nc3ccc(C)c(NS(C)(=O)=O)c3)n2)cc(OC)c1OC [Compound 305] ) is < 869 nM

# IC50 (molecule: COC(=O)c1ccc(-c2cc(Nc3ncnc(Nc4cc(OC)c(OC)c(OC)c4)n3)[nH]n2)cc1 [Compound 523] ) is > 9420 nM

# IC50 (molecule: COc1cccc(Nc2ncnc(-n3c(N)nc4ccccc43)n2)c1 [Compound 654] ) is 1200 to 7200 nM

# IC50 (molecule: COCCOc1ccc(Nc2ncnc(Nc3cc(-c4ccco4)n[nH]3)n2)cc1OCCOC [Compound 328] ) is 856 to 5130 nM

# IC50 (molecule: CCC(Nc1nc2ccccc2n1-c1ncnc(Nc2cc(OC)c(OC)c(OC)c2)n1)c1ccccc1 (stereo not shown) [Compound 592] ) is < 782 nM

# IC50 (molecule: Cc1cccc(Nc2ncnc(Nc3cccc(Br)c3)n2)c1 [Compound 109] ) is > 12600 nM

---

Quick record of pIC50 values for Lyn (Homo sapiens).
pIC50: −log10 of the molar value.

COc1cc(Nc2ncnc(-n3c(NCc4ccccc4C)nc4ccccc43)n2)cc(OC)c1OC [Compound 511] = 5.32 to 6.09
COc1cc(Nc2ncnc(Nc3ccc4c(cnn4Cc4ccccc4)c3)n2)cc(OC)c1OCCN1CCOCC1 [Compound 559] = > 6.16
COc1cc(Nc2ncnc(-n3c(N)nc4cc(C(F)(F)F)ccc43)n2)cc(OC)c1OC [Compound 292] = 5.28 to 6.06

Please look at the following compound next.
# pIC50 (compound: COc1cc(Nc2ncnc(Nc3ccc(C)c(N)c3)n2)cc(OC)c1OC [Compound 935] ) is > 5.98

---

- TARGET_ENTITY: Lck (Homo sapiens)
- Construct: Kinases are expressed as either kinase domains or full length constructs; made in house
- ASSAY_INFO: Kinase inhibition assay (33P transfer), Lck
- Assay type: biochemical
- CONDITION: Table 3; read-out: Lck-1
IC50 overview

# count of solved cases: 4
Oc1ccc(Nc2ncnc(Nc3ccc(OCc4ccccc4)cc3)n2)cc1 = 9.08 to 11.7 µM
COC(=O)c1ccc(Nc2ncnc(-c3ccccc3)n2)cc1 = > 14.7 µM
O=c1[nH]c2ccccc2n1-c1ncnc(Nc2ccc(Cl)cc2)n1 = > 13.3 µM
COc1cc(Nc2ncnc(Nc3ccc(C(N)=O)cc3)n2)cc(OC)c1OC = 8.83 to 11.4 µM

Please look at the following compound next.
# IC50 (compound: O=C(Nc1ccc(Nc2ncnc(-n3c(=O)[nH]c4ccccc43)n2)cc1)O[C@@H]1CCOC1 ) is 0.923 to 5.54 µM
